# target entity: ALK^WT (Homo sapiens, UniProt Q9UM73)
# Sequence (Q9UM73 19-1620): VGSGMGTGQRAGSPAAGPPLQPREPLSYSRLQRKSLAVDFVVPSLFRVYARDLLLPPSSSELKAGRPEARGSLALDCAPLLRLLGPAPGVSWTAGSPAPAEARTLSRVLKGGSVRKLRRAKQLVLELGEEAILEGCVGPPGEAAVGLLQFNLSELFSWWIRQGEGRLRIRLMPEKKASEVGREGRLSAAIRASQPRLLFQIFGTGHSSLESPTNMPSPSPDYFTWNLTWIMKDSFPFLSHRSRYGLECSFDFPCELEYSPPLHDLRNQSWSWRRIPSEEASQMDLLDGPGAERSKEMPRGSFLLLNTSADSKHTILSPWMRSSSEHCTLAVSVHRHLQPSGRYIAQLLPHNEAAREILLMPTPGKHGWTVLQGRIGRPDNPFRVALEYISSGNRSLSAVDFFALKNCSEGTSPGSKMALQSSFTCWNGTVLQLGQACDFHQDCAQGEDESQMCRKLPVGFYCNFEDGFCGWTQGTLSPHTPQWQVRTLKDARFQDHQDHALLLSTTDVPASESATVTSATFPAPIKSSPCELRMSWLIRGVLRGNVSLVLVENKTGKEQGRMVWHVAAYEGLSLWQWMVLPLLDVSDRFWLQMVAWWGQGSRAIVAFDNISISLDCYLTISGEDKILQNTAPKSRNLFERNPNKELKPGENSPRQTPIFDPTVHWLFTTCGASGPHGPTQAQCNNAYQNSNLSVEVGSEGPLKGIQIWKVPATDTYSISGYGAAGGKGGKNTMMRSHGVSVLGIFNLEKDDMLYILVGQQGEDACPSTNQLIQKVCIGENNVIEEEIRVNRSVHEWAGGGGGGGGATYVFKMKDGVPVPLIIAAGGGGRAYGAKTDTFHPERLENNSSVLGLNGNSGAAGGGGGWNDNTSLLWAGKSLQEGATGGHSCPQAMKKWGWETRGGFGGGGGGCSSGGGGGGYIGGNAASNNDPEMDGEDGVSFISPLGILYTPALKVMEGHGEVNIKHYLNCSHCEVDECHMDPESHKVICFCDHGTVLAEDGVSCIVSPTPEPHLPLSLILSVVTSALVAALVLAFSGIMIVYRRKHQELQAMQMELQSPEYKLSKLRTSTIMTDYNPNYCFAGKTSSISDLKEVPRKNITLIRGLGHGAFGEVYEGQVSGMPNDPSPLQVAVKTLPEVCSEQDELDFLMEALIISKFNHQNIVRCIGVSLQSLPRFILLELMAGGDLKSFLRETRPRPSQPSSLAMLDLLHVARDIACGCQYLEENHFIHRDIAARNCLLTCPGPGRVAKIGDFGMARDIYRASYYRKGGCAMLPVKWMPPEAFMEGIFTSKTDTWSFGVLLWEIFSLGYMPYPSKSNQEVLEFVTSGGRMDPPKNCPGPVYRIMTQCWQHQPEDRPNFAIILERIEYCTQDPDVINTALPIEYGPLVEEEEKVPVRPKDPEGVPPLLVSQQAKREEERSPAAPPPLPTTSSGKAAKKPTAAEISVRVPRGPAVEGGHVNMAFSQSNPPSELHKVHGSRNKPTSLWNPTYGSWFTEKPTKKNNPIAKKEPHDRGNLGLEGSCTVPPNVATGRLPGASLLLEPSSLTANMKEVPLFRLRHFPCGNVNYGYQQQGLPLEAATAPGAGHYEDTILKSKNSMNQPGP
# protocol summary: HTRF KinEASE-TK kinase inhibitory assay, ALK wild type
# Format: biochemical
assay metric: IC50 (nM)

(P) CCn1cc(-c2cnc(N)c(O[C@H](C)c3ccccc3-c3ccccc3)c2)cn1
(Q) C[C@@H](Oc1cc(-c2ccnn2C)cnc1N)c1ccccc1-c1ccccc1
(R) CCCn1cc(-c2cnc(N)c(O[C@H](C)c3ccccc3)c2)cn1
(S) C[C@@H](Oc1cc(-c2cnn(C)c2)cnc1N)c1ccccc1
hey, can you rank those molecules up there by IC50? biggest number first please The response must list the labels following the requested ordering.
R, S, Q, P
(R: 1540 nM, S: 458 nM, Q: 217 nM, P: 75.9 nM)

(A) C[C@@H](Oc1cc(-c2cnn(C)c2)cnc1N)c1ccccc1F
(B) C[C@@H](Oc1cc(-c2ccnn2C)cnc1N)c1ccccc1
A or B : whose IC50 is greater? Field: selected label. Fill in the label of the entry you choose.
B

(a) C[C@@H](Oc1cc(-c2cnn(C)c2)cnc1N)c1ccccc1-c1ccccc1
(b) C[C@@H](Oc1cc(-c2cnn(C)c2)cnc1N)c1ccccc1-c1ccnn1C
(c) CCn1cc(-c2cnc(N)c(O[C@H](C)c3ccccc3)c2)cn1
Arrange these molecules by their IC50, starting with the largest number. Answer format: the labels, ordered as requested.
c, b, a
(c: 454 nM, b: 286 nM, a: 67.4 nM)

----------
# target entity: Ba/F3 EML4-ALK^WT cell (Homo sapiens, UniProt Q9HC35+Q9UM73)
# Sequence (Q9UM73 1059-1620 limits assumed, one chain of several): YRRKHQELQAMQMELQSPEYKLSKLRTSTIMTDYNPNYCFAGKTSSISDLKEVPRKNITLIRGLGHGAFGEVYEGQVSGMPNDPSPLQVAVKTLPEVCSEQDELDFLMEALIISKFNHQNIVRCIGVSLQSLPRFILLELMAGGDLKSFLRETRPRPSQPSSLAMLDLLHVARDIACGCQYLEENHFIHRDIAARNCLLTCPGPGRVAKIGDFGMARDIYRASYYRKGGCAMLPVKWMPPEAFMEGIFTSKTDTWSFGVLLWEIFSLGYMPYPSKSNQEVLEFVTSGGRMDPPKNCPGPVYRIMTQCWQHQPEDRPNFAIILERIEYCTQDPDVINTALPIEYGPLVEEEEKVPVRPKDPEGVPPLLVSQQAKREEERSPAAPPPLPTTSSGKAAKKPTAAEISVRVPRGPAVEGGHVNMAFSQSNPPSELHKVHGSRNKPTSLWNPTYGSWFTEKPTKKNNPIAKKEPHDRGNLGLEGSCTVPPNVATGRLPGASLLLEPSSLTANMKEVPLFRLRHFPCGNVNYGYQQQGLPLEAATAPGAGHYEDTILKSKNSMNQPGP
# Assay type: cell-based
# applied conditions: read-out: Ba/F3 cellular activities (nM) EML4-ALK^WT; 72 h exposure, IC50, at least three independent experiments
assay metric: IC50 (nM)
Unit nM implied. Number only.

Recorded result, `C[C@@H](Oc1cc(-c2cnn(C)c2)cnc1N)c1ccccc1-c1ccccc1` , IC50: 681

----------
# Tested on: HCC-78 cell line harbouring SLC34A2-ROS1 fusion
# protocol summary: Antiproliferative MTT assay, HCC-78
# Type: cell-based, human
# applied conditions: Homo sapiens, HCC78, 72 h, read-out: Cellular IC50 (μM) HCC-78
assay metric: IC50 (µM)

The examples below pair each entry with its known result.
{"compound": "CCn1cc(-c2cnc(N)c(O[C@H](C)c3ccccc3)c2)cn1 [A03]", "assay metric": "IC50", "observed": 50.5}
{"compound": "C[C@@H](Oc1cc(-c2cccn2C)cnc1N)c1ccccc1-c1ccnn1C [B01]", "assay metric": "IC50", "observed": 33.9}
{"compound": "C[C@@H](Oc1cc(-c2ccnn2C)cnc1N)c1ccccc1-c1ccccc1 [B07]", "assay metric": "IC50", "observed": 16.9}
{"compound": "C[C@@H](Oc1cc(-c2cnn(C3CCNCC3)c2)cnc1N)c1c(Cl)ccc(F)c1Cl [Crizotinib, reference compound]", "assay metric": "IC50", "observed": 4.5}

(a) C[C@@H](Oc1cc(-c2ccnn2C)cnc1N)c1ccccc1-c1ccnn1C [B02]
(b) C[C@@H](Oc1cc(-c2cnn(C)c2)cnc1N)c1ccccc1-c1ccccc1 [B08]
(c) CCn1cc(-c2cnc(N)c(O[C@H](C)c3ccccc3-c3ccccc3)c2)cn1 [B09]
(d) C[C@@H](Oc1cc(-c2cnn(C)c2)cnc1N)c1ccccc1 [A02]
(e) CCCn1cc(-c2cnc(N)c(O[C@H](C)c3ccccc3-c3ccnn3C)c2)cn1 [B05]
Put the items in order so that reported IC50 rises from first to last. Write the labels out in the order the request specifies.
b, c, e, d, a
(b: 4.6 µM, c: 11.4 µM, e: 21.3 µM, d: 36.4 µM, a: 64.8 µM)
